- Tested on: HepG2
- Method Summary: cell viability relative to DMSO; higher = less toxic
- Details: 72 h; 10 nM
Quantity Kind: cell viability (%)

* Cc1ccccc1OCC(O)CO (centres undefined) | 113
* CC1=C(/C=C/C(=C/C=C/C(C)=C/C(=O)O)c2ccc(C)cc2)C(C)(C)CCC1 | 103
* CC(C)OC(=O)[C@H](C)N[P@@](=O)(OC[C@H]1O[C@@H](n2ccc(=O)[nH]c2=O)[C@](C)(F)[C@@H]1O)Oc1ccccc1 | 103
* O=C(Nc1ccccc1)c1cc([N+](=O)[O-])ccc1Cl | 100
* CC[N+](CC)(CC)CCOc1ccc(/C=C/c2ccccc2)cc1 | 102
* Nc1ccc(S(=O)(=O)c2ccc(N)cc2)cc1 | 107
* CC(=O)Oc1ccccc1C(=O)Nc1ncc([N+](=O)[O-])s1 [nitazoxanide] | 95.6
* NC(=O)[C@@H](CC1CC1)[C@@H](CCC(F)(F)F)C(=O)N[C@H]1N=C(c2ccccc2)c2cccc(F)c2NC1=O | 106
* CCOc1cc(C(=O)Nc2ccc(Cl)c(-c3nc4ccccc4[nH]3)c2)cc(OCC)c1OCC | 94.4
